Entry source: patent US10570117B2

method.description: Solubility in gastric juice or intestinal juice model fluid (precipitation method using DMSO)
Type: physicochemical
assay.conditions: pH 6.8, kinetic from dmso stock, 2nd fluid for Disintegration Test of Japanese Pharmacopoeia (pH: 6.8), room temperature, read-out: Solubility (μg/mL) 2nd fluid
solubility at 24 h of 5 µg/mL or higher: y. Under 5 µg/mL: n.

compound_structure=COc1cc(-c2cnc(C3CCCC3)[nH]2)ccc1OCc1ncc(C(F)(F)F)cc1F label_class=y
compound_structure=COc1cc(OCc2ccnc(C(F)(F)F)c2)ccc1-c1cnc(-c2ccc(Cl)nc2)[nH]1 label_class=y
compound_structure=COc1cc(OCc2ccc(Br)cc2F)ccc1-c1c[nH]c(-c2ccncc2)n1 label_class=n
compound_structure=Fc1cc(C(F)(F)F)cnc1COc1ccc(-c2[nH]c(C3CC(F)(F)C3)nc2Cl)cc1 label_class=n
compound_structure=COc1cc(OCc2ncc(F)cc2F)ccc1-c1[nH]c(-c2ccc(F)nc2)nc1Br label_class=n
compound_structure=COc1cc(OCc2ncc(C(F)(F)F)cc2Cl)ccc1-c1cnc(-c2ccc(F)nc2)[nH]1 label_class=n
compound_structure=COc1cc(OCc2ncc(C(F)(F)F)cc2F)ccc1-c1[nH]c(C2CCCC2)nc1Cl label_class=n
